studyTarget: Chymotrypsinogen A (Bos taurus, UniProt P00766)
testDescription: Selectivity was evaluated as the binding affinity between thrombin versus Chymotrypsinogen
propertyName: Ki

Ki lookup needed for NC(C(=O)N1CCC[C@H]1C(=O)NCc1cc(Cl)ccc1Cl)C(c1ccccc1)c1ccccc1 (stereo partly specified) , thanks.
> 50 µM
